The origin of these recorded values is the pKa sets of Baltruschat and Czodrowski (2020).

- experimental setup: acidic group
# pKa values compiled below
measured parameter: pKa

>>> print(df.to_string())
                                    compound  endpoint_value
 0                   CC(C)c1cc(O)c(=O)ccc1Br            6.53
 1            OC(c1ccccc1)(c1ccncc1)c1ccncc1            13.1
 2                              Cc1ccc(S)cc1            6.47
 3  CC(C)CC([NH3+])C(=O)O (stereo not given)            2.46
 4                         O=C1CC(=O)C(=O)C1               3
 5                      CCCCCCCCCCCCCCC(=O)O            5.01
 6                    Cc1cc(=O)oc2cc(O)ccc12             7.8
 7                     [O-]/N=C1\CCCC\C1=N/O            12.6
 8                NC1=NS(=O)(=O)Nc2nc[nH]c21            4.28
 9            C[n+]1cccc(/C=C(/O)c2ccccc2)c1            6.75
10                         O=Cc1cccnc1C(=O)O             3.7
11  COc1ccc2c(c1O)-c1c3c(cc4c1[C@H](C2)N(C)CC4)OCO3            10.1
12  C[NH+](C)Cc1c(O)c(O)c(O)c(C[NH+](C)C)c1C(=O)[O-]            6.95
13             NS(=O)(=O)c1ccc(P(=O)(O)O)cc1            1.42
14                      COc1ccc(CCC(=O)O)cc1            4.72
15                NS(=O)(=O)c1ccc(Cl)c(Cl)c1            8.94
16                       CC[Si](C)(C)CC(=O)O             5.4
17                        O=C(O)CCCCc1ccccc1            4.88
18   Cc1ccc(C[n+]2ccc(C(=O)Cc3ccccc3)cc2)cc1            8.91
19  CC(C)[C@H]1C[NH2+][C@H](C(=O)[O-])[C@H]1CC(=O)O            4.23
20             O=C(O)c1cc([N+](=O)[O-])ccc1F            2.73
21   C[N+](C)(C)NC(=O)c1ccc([N+](=O)[O-])cc1            3.11
22                             Sc1cc[nH+]cc1            1.43
23                        CSc1ncnc2nc[nH]c12            8.74
24                O=C(O)/C=C/c1ccc2c(c1)OCO2             4.6
25  Cn1c[nH+]cc1C[C@H](NC(=O)CC[NH3+])C(=O)O            2.64
26  CC1(C)S[C@H]2C(C(=O)[O-])[NH+]=C(CCCC([NH3+])C(=O)[O-])N2C1C(=O)O (stereo not given in full)             3.1
27  COc1cc(S(C)=O)ccc1-c1nc2ccnnc2[nH]1 (stereo not given)             8.7
28                               C=CCCC(=O)O            4.68
29                      CCc1ccc(O)c(C(C)C)c1            10.8
30                         N#CC(O)=C(C#N)C#N             1.9
31                     O=C(O)c1ccc(C2CC2)cc1            4.42
32         O=C(O)c1cc2cc(Cn3cc[nH+]c3)ccc2s1            2.74
33                         O=C(O)c1cnc(Br)s1            2.96
34    O=C1CC(Sc2ccccc2)N1 (stereo not given)            13.3
35                             CC(C)SCC(=O)O            3.72
36                            OB1OCc2ccccc21            7.38
37                N#CC(C#N)=NNc1ccc(CCCl)cc1             6.5
38           N#CC(C#N)c1ccc([N+](=O)[O-])cc1            2.35
39                            O=Cc1cccc(O)c1            8.86
40                             Oc1cccc(O)c1O            8.97
41                      O=C1CCc2ccc(Cl)cc2C1            12.3
42               COc1ccc2[nH]c3c(C)nccc3c2c1            14.6
43                       O=C(O)c1nsc2ccccc12            2.76
44  N#CC(c1ccccc1)c1ccc([N+](=O)[O-])cc1 (stereo not given)            10.9
45  O=C(O)C(c1ccc(-c2ccccc2)cc1)C1(O)CCCC1 (stereo not given)            3.65
46                     COc1ccc(C(=O)O)c(C)c1            4.54
47                         O/N=C/c1ccc(O)cc1            8.78
48                                Nc1ccccc1O            9.71
49                     C[Si](C)(C)CCCCC(=O)O            4.96
50        O=C([O-])c1cc(O)c(O)c(C(=O)O)[o+]1             1.8
51        CC(C)(/C=C/C(=O)[O-])c1cc(Br)ccc1O              10
52                         CC(=O)c1ccc(F)cc1            18.5
53                             [NH3+]CC[SeH]               5
54          Nc1c2c(ncn2Cc2ccccc2)nc[n+]1[O-]              11
55                     O=S1(=O)N=CNc2ccncc21            6.71
56             CC(=O)C(Cc1ccc(C#N)cc1)C(C)=O            9.69
57  CCC(C)[C@H]([NH3+])C(=O)O (stereo not given in full)            2.26
58                    N#Cc1ccccc1-c1nnn[nH]1            3.55
59  CC(C)C([NH2+]c1ccccc1)C(=O)O (stereo not given)             4.4
